Test system: MT4 cells
test_protocol: Test D (XTT), MT4 cells, no virus
Type: cell-based
protocol_conditions: Homo sapiens, 10 µg/ml
measure_name: inhibition at 10 µg/mL

> print(dat)
                     test.smiles  value.measured
1    S=C(NCCc1ccccc1)Nc1nnc[nH]1             33%
2       S=C(NCCc1ccccc1)Nc1nccs1             33%
3  N#Cc1csc(NC(=S)NCCc2ccccc2)n1             70%

Task: Looking for the measured inhibition at 10 µg/mL of `Cc1nc(NC(=S)NCCc2ccccc2)sc1C` , can you help?
Result: 0%

Task: Give the measured inhibition at 10 µg/mL of `Fc1ccc2nc(NC(=S)NCCc3ccccc3)sc2c1` .
Result: 28%

Task: Fill in: inhibition at 10 µg/mL of `FC(F)(F)c1csc(NC(=S)NCCc2ccccc2)n1` is ___
Result: 75%

Task: Data request, read-out inhibition at 10 µg/mL, for `S=C(NCCc1ccccc1)Nc1nc2ccccc2s1`
Result: 27%
